Origin of values: patent US8269013B2

Below, each entry is listed with its recorded log10 Ki.
tested.target: c-Met (Homo sapiens, UniProt P08581)
Sequence (P08581 25-1390): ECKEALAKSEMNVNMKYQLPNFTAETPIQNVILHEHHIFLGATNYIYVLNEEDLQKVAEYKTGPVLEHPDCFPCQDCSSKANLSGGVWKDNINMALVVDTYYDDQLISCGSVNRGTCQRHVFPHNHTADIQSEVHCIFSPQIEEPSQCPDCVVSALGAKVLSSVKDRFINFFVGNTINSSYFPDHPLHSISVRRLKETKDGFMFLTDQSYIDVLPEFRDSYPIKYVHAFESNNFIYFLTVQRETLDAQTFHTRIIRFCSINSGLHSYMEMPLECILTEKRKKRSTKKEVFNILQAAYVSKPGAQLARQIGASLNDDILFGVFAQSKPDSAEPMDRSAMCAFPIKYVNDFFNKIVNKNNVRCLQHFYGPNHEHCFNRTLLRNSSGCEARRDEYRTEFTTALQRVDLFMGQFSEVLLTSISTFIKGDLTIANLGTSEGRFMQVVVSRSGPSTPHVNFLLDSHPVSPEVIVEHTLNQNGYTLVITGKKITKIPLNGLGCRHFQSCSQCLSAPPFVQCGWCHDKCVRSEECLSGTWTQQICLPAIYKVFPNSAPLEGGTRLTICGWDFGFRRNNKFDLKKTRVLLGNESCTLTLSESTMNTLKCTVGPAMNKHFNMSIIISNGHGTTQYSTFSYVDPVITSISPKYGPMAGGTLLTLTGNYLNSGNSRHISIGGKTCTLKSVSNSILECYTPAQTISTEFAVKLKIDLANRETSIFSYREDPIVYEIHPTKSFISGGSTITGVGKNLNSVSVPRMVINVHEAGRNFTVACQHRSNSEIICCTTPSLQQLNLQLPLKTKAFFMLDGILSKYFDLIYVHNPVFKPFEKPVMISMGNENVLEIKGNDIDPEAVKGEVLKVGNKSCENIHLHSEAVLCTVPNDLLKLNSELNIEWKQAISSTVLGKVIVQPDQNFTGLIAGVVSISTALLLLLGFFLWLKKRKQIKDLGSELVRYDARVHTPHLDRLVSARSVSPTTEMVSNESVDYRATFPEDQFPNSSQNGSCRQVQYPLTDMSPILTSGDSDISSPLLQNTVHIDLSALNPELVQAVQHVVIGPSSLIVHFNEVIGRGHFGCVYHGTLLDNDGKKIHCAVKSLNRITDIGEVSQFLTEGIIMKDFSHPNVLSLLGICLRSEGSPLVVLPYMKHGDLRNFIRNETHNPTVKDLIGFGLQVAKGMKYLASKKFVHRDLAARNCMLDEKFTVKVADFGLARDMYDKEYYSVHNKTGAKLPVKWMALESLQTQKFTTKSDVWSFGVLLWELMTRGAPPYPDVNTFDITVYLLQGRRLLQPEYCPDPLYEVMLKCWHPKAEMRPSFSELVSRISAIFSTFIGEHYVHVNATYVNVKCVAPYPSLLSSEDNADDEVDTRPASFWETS
reported.metric: log10 Ki (log10 of the value in nM)

| compound | log10 Ki |
| --- | --- |
| CCc1nn(C)cc1-c1nn2c([C@H](C)c3ccc4ncccc4c3)nnc2s1 [Compound 7] | 1.00 |
| C[C@H](c1c(F)cc2ncccc2c1F)c1nnc2sc(-c3cnn(C)c3)nn12 [reference compound] | 1.85 |
| C[C@H](c1ccc2ncccc2c1)c1nnc2sc(-c3cnn(C)c3)nn12 [reference compound] | 2.39 |
| Cc1nn(C)cc1-c1nn2c(C(F)(F)c3ccc4ncccc4c3)nnc2s1 [Compound 20] | 1.15 |
| Cn1cc(-c2nn3c(Cc4c(F)cc5ncccc5c4F)nnc3s2)cn1 [reference compound] | 1.20 |
| C[C@@H](c1c(F)cc2ncccc2c1F)c1nnc2sc(-c3cnn(C)c3)nn12 [reference compound] | 0.70 |
| Cn1cc(-c2nn3c(C(F)(F)c4ccc5ncccc5c4)nnc3s2)cn1 [reference compound] | 1.56 |
| C[C@@H](c1ccc2ncccc2c1)c1nnc2sc(-c3cnn(C)c3)nn12 [reference compound] | 1.38 |
| Cn1cc(-c2nn3c(C(C)(C)c4ccc5ncccc5c4)nnc3s2)cn1 [reference compound] | 3.53 |
